Each recorded value in this set is attributed to ChEMBL document CHEMBL1629662.

For each entry below, report its MIC90 value.
# System: Shigella boydii
# experiment: Antibacterial activity against Shigella boydii by broth microdilution method
# Format: functional

{"columns": ["compound", "MIC90"],
 "data": [
  ["O=C(O)c1cn(C2CC2)c2cc(N3CCNCC3)c(F)cc2c1=O", "0.016 µg/mL"],
  ["C[C@H]1c2cccc(O)c2C(=O)C2=C(O)[C@]3(O)C(=O)C(C(N)=O)=C(O)[C@@H](N(C)C)[C@@H]3[C@@H](O)[C@@H]21.O", "32 µg/mL"],
  ["CC1Sc2c(C(=O)O)c(=O)c3cc(F)c(N4CCNCC4)cc3n21 (stereo unspecified)", "0.008 µg/mL"]
]}

Hey, quick one: what's MIC90 for each of these?
1. CC1(C)S[C@@H]2[C@H](NC(=O)[C@H](N)c3ccccc3)C(=O)N2[C@H]1C(=O)O
2. CCn1cc(C(=O)O)c(=O)c2ccc(C)nc21

1: > 256 µg/mL; 2: ≤ 8 µg/mL

Could you share what MIC90 was measured for `CO[C@H]1/C=C/O[C@@]2(C)Oc3c(C)c(O)c4c(O)c(c5c(nc6cc(C)ccn65)c4c3C2=O)NC(=O)/C(C)=C\C=C\[C@H](C)[C@H](O)[C@@H](C)[C@@H](O)[C@@H](C)[C@H](OC(C)=O)[C@@H]1C` , tested on Shigella boydii? 16 µg/mL

----------
For each entry below, report its MIC50 value.
# Tested on: Vibrio cholerae
# experiment: Antibacterial activity against Vibrio cholerae by broth microdilution method
# Assay type: functional

{"columns": ["compound", "MIC50"],
 "data": [
  ["C[C@H]1c2cccc(O)c2C(=O)C2=C(O)[C@]3(O)C(=O)C(C(N)=O)=C(O)[C@@H](N(C)C)[C@@H]3[C@@H](O)[C@@H]21.O [DOXYCYCLINE]", "≤ 0.12 µg/mL"],
  ["CC1(C)S[C@@H]2[C@H](NC(=O)[C@H](N)c3ccccc3)C(=O)N2[C@H]1C(=O)O [AMPICILLIN]", "2 µg/mL"],
  ["CO[C@H]1/C=C/O[C@@]2(C)Oc3c(C)c(O)c4c(O)c(c5c(nc6cc(C)ccn65)c4c3C2=O)NC(=O)/C(C)=C\\C=C\\[C@H](C)[C@H](O)[C@@H](C)[C@@H](O)[C@@H](C)[C@H](OC(C)=O)[C@@H]1C [RIFAXIMIN]", "0.5 µg/mL"],
  ["O=C(O)c1cn(C2CC2)c2cc(N3CCNCC3)c(F)cc2c1=O [CIPROFLOXACIN]", "0.016 µg/mL"],
  ["CCn1cc(C(=O)O)c(=O)c2ccc(C)nc21 [NALIDIXIC ACID]", "≤ 8 µg/mL"]
]}

Then there is this compound:
Which MIC50 value belongs to CC1Sc2c(C(=O)O)c(=O)c3cc(F)c(N4CCNCC4)cc3n21 (stereo unspecified) [ULIFLOXACIN] ? 0.016 µg/mL

----------
# Test system: Aeromonas sobria
# experiment: Antibacterial activity against Aeromonas sobria by broth microdilution method
# Assay type: functional
For each entry below, report its MIC50 value.
Answers are plain numbers, in µg/mL.

Look over these answered cases.
{"columns": ["compound", "display.unit", "MIC50"],
 "data": [
  ["CO[C@H]1/C=C/O[C@@]2(C)Oc3c(C)c(O)c4c(O)c(c5c(nc6cc(C)ccn65)c4c3C2=O)NC(=O)/C(C)=C\\C=C\\[C@H](C)[C@H](O)[C@@H](C)[C@@H](O)[C@@H](C)[C@H](OC(C)=O)[C@@H]1C [RIFAXIMIN]", "µg/mL", 4],
  ["O=C(O)c1cn(C2CC2)c2cc(N3CCNCC3)c(F)cc2c1=O [CIPROFLOXACIN]", "µg/mL", 0.004],
  ["C[C@H]1c2cccc(O)c2C(=O)C2=C(O)[C@]3(O)C(=O)C(C(N)=O)=C(O)[C@@H](N(C)C)[C@@H]3[C@@H](O)[C@@H]21.O [DOXYCYCLINE]", "µg/mL", 0.5]
]}

Which MIC50 value belongs to CC1Sc2c(C(=O)O)c(=O)c3cc(F)c(N4CCNCC4)cc3n21 (stereo unspecified) [ULIFLOXACIN] ? 0.004
